SYSTEM TESTED: isolated activated GpIIb/IIIa receptor (Homo sapiens, UniProt P05106+P08514)
Sequence (P08514 32-887 limits assumed): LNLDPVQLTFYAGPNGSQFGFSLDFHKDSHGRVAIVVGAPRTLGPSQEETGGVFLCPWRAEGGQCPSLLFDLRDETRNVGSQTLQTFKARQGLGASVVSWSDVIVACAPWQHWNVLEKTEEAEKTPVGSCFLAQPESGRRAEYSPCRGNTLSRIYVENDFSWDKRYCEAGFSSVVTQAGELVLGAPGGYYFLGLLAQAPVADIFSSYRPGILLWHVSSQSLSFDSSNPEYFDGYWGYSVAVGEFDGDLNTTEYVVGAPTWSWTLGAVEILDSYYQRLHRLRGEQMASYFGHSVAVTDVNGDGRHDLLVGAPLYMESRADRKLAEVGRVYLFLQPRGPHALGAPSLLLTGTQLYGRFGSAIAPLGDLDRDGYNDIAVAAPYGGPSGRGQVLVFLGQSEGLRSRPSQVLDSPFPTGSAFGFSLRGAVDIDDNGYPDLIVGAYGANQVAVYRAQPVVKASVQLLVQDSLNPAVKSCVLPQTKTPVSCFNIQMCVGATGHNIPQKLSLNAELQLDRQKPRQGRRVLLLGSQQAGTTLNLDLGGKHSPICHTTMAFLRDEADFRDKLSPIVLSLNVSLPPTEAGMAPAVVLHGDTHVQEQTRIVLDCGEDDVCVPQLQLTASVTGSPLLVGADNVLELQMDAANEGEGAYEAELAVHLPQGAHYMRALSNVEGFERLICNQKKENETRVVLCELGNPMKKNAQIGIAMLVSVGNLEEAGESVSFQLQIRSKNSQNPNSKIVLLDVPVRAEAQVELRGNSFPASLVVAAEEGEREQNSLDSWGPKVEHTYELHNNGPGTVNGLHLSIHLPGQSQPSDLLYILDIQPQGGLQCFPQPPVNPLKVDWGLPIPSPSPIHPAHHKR
Sequence (P08514 891-1039 partner limits assumed): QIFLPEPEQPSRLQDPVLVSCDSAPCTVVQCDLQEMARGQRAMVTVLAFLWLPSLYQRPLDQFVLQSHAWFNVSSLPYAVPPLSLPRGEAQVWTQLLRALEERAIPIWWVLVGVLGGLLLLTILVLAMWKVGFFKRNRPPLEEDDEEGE
Sequence (P05106 27-788): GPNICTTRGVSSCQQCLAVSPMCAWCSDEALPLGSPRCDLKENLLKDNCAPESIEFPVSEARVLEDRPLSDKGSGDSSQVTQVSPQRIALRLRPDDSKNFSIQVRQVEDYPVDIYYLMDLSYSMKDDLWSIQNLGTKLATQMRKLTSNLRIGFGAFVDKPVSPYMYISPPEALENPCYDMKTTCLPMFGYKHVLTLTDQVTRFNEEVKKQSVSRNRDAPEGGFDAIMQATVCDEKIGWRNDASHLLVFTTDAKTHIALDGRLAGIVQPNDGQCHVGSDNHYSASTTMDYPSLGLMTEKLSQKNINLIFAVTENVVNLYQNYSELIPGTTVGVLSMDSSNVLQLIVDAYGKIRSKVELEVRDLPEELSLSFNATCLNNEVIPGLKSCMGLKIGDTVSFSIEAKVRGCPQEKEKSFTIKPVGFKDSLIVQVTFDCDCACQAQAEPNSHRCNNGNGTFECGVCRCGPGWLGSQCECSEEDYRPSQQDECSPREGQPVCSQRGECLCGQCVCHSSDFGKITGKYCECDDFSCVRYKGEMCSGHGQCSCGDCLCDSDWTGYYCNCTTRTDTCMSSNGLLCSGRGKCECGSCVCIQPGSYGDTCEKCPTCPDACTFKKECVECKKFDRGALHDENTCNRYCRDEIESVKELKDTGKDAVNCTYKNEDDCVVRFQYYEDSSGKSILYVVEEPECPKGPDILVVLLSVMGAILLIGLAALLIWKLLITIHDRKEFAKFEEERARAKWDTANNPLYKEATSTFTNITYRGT
PROTOCOL DESCRIPTION: GpIIb/IIIa fibrinogen Elisa
EXPERIMENTAL CONTEXT: inhibition of fibrinogen binding to coated GpIIb/IIIa receptor, optical density at 405 nm
ASSAY ENDPOINT: IC50 (nM)
Numbers only; they are read as nM.

molecule="N=C(N)N1CC=C(CC(NC(=O)OCC(Cl)(Cl)Cl)C(=O)NCC(=O)N[C@@H](CC(=O)O)C(=O)N[C@@H](CO)C(=O)O)C1 (stereo partly shown)" system_tested="isolated activated GpIIb/IIIa receptor (Homo sapiens, UniProt P05106+P08514)" reading_unit=nM value_observed=14400
molecule="N=C(N)N1CC=C(CC(N)C(=O)NCC(=O)N[C@@H](CC(=O)O)C(=O)N[C@@H](Cc2ccc(O)cc2)C(=O)O)C1 (stereo partly shown)" system_tested="isolated activated GpIIb/IIIa receptor (Homo sapiens, UniProt P05106+P08514)" reading_unit=nM value_observed=2400
molecule="N=C(N)N1CC=C(CC(NC(=O)OCC(Cl)(Cl)Cl)C(=O)NCC(=O)N[C@@H](CC(=O)O)C(=O)N[C@@H](Cc2c[nH]c3ccccc23)C(=O)O)C1 (stereo partly shown)" system_tested="isolated activated GpIIb/IIIa receptor (Homo sapiens, UniProt P05106+P08514)" reading_unit=nM value_observed=400

Exam item: In one line, give reported IC50 of the entry N=C(N)N1CC=C(CC(NC(=O)OCC(Cl)(Cl)Cl)C(=O)NCC(=O)N[C@@H](CC(=O)O)C(=O)N[C@@H](Cc2ccccc2)C(=O)O)C1 (stereo partly shown) .
Marked response: 2300
